Measured inhibition at 0.1 µM accompanies every entry in the list below.
Biological target: human recombinant adrenergic α2A receptor (Homo sapiens, UniProt P08913)
Construct: expressed in transfected cells; host or cells: insect Sf9 cells
Sequence (P08913 whole entry): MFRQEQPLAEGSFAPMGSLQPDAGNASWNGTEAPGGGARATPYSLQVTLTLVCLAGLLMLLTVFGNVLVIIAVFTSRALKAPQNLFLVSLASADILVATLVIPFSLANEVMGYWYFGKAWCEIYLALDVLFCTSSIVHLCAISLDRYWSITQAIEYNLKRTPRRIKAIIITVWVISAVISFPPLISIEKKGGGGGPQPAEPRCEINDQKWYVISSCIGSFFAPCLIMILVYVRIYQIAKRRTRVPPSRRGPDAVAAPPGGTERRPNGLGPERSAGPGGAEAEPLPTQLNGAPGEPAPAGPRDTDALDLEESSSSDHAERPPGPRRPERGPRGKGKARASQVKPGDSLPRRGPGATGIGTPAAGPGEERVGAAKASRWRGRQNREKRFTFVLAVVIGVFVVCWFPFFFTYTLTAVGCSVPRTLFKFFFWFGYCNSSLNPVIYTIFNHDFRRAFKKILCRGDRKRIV
Assay: Radioligand binding, adrenergic α2A ([3H]MK-912)
Details: 0.1 μM compound; read-out: Percentage inhibition of ligand binding, Adrenergic α2A
Procedure: To evaluate in radioligand binding assays the activity of compounds of the invention, human recombinant adrenergic α2A receptor expressed in insect Sf9 cells (Uhlen, S. et al, J. Pharmacol. Exp. Ther. 271:1558, 1994) in a modified Tris-HCl buffer (50 mM Tris-HCl, pH 7.4, 12.5 mM MgCl2, 2 mM EDTA) was used. […] Receptor proteins were filtered and washed, the filters were then counted to determine [^3H]MK-912 specifically bound. […]
Dear colleague, please return just the value in %, with no unit written.

Solved entries (count: 2):
> print(dat)
                                   molecule  numeric.result
1  OCCN1CCc2c(c3cc(Cl)ccc3n2CC(O)c2ccncc2)C1 (stereo not drawn) [II-93a]               7
2  Cc1ccc2c(c1)c1c(n2CC(NC2CCC2)c2ccncc2)CCN(C)C1 (stereo not drawn)               9

**Query** Suppose we examine the molecule COc1ccc(C(C)(O)Cn2c3c(c4cc(C)ccc42)CN(C)CC3)cc1 (stereo not drawn) [254a] ; what inhibition at 0.1 µM value has been reported?
**Result** 58
